The reported measurements were obtained from PubChem BioAssay AID1918956.

- Tested on: OVCAR-5 complex spheroids, viability
- assay_text: Anticancer human tumor OVCAR-5 cell line growth inhibition
- run_conditions: second compound 10 µM; first compound 0.03 µM; hits give low values
The reader will find reported viability, T/C values listed item by item below.
Please give a number only; it is taken to be in %.

Known viability, T/C results, listed for orientation:
>>> print(df.to_string())
                                   molecule  outcome_measure  measurement_unit  value_measured
0  Nc1ncn(C2CC(O)C(CO)S2)c(=O)n1 (centres undefined) + NC1CC1c1ccc(-c2cccc(O)c2)cc1   viability, T/C                 %            78.1
1  Nc1ccccc1NC(=O)c1ccc(CNC(=O)OCc2cccnc2)cc1 + NC1CC1c1ccc(-c2cccc(O)c2)cc1   viability, T/C                 %            71.3
2  O=C(C=Cc1cccc(S(=O)(=O)Nc2ccccc2)c1)NO + NC1CC1c1ccc(-c2cccc(O)c2)cc1   viability, T/C                 %            73.9
3  Nc1ccn(C2OC(CO)C(O)C2(F)F)c(=O)n1 (centres undefined) + NC1CCC(NC2CC2c2ccccc2)CC1   viability, T/C                 %            34.6
4  CCc1c2c(nc3ccc(O)cc13)-c1cc3c(c(=O)n1C2)COC(=O)[C@]3(O)CC + NC1CCC(NC2CC2c2ccccc2)CC1   viability, T/C                 %            5.97

// viability, T/C lookup, molecule = NS(=O)(=O)OCC1CC(n2ccc3c(NC4CCc5ccccc54)ncnc32)CC1O (centres undefined) + NC1CC1c1ccc(-c2cccc(O)c2)cc1 , result: 101

// viability, T/C lookup, molecule = Nc1ccn(C2OC(CO)C(O)C2(F)F)c(=O)n1 (centres undefined) + NC1CC1c1ccc(-c2cccc(O)c2)cc1 , result: 26.9

// viability, T/C lookup, molecule = CCN(c1cc(-c2ccc(CN3CCOCC3)cc2)cc(C(=O)NCc2c(C)cc(C)[nH]c2=O)c1C)C1CCOCC1 + NC1CC1c1ccc(-c2cccc(O)c2)cc1 , result: 91.9

// viability, T/C lookup, molecule = CCc1c2c(nc3ccc(O)cc13)-c1cc3c(c(=O)n1C2)COC(=O)[C@]3(O)CC + NC1CC1c1ccc(-c2cccc(O)c2)cc1 , result: 4.37

* * *

- Test system: OVCAR-5 complex spheroids, viability
- assay_text: Anticancer human tumor OVCAR-5 cell line growth inhibition;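 further: spheroids exposed to agents for seven days; 100% = DMSO vehicle control wells viability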
- run_conditions: second compound 3.16 µM; first compound 0.001 µM; hits give low values
outcome_measure: viability, T/C (%)
Please give a number only; it is taken to be in %.

Known viability, T/C results, listed for orientation:
>>> print(df.to_string())
                                   compound  measurement_unit  value_measured
0  CC[C@@]1(O)C(=O)OCc2c1cc1n(c2=O)Cc2cc3c(CN(C)C)c(O)ccc3nc2-1 + NC1CCC(NC2CC2c2ccccc2)CC1                 %            98.5
1  CC[C@@]1(O)C(=O)OCc2c1cc1n(c2=O)Cc2cc3c(CN(C)C)c(O)ccc3nc2-1 + NC1CC1c1ccc(-c2cccc(O)c2)cc1                 %            78.8
2  Cn1ncnc1C1c2n[nH]c(=O)c3cc(F)cc(c23)NC1c1ccc(F)cc1 (stereo not drawn) + NC1CC1c1ccc(-c2cccc(O)c2)cc1                 %            94.2

// viability, T/C lookup, compound = CC(C)CC(NC(=O)CNC(=O)c1cc(Cl)ccc1Cl)B1OC(=O)CC(CC(=O)O)(C(=O)O)O1 (stereo not drawn) + NC1CC1c1ccc(-c2cccc(O)c2)cc1 , result: 78.7

// viability, T/C lookup, compound = CC(C)CC(NC(=O)CNC(=O)c1cc(Cl)ccc1Cl)B1OC(=O)CC(CC(=O)O)(C(=O)O)O1 (stereo not drawn) + NC1CCC(NC2CC2c2ccccc2)CC1 , result: 103

// viability, T/C lookup, compound = Cn1ncnc1C1c2n[nH]c(=O)c3cc(F)cc(c23)NC1c1ccc(F)cc1 (stereo not drawn) + NC1CCC(NC2CC2c2ccccc2)CC1 , result: 95.9

// viability, T/C lookup, compound = CC(C)CC(NC(=O)C(Cc1ccccc1)NC(=O)c1cnccn1)B(O)O (stereo not drawn) + NC1CC1c1ccc(-c2cccc(O)c2)cc1 , result: 70.5

// viability, T/C lookup, compound = CC(C)CC(NC(=O)C(Cc1ccccc1)NC(=O)c1cnccn1)B(O)O (stereo not drawn) + NC1CCC(NC2CC2c2ccccc2)CC1 , result: 104

* * *

- Test system: OVCAR-5 complex spheroids, viability
- assay_text: Anticancer human tumor OVCAR-5 cell line growth inhibition;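 further: spheroids exposed to agents for seven days; 100% = DMSO vehicle control wells viability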
- run_conditions: second compound 0.1 µM; first compound 0.949 µM; hits give low values
# label = fulfilled if viability, T/C < 20% else not fulfilled

compound	target_entity	label
O=C(C=Cc1cccc(S(=O)(=O)Nc2ccccc2)c1)NO + NC1CCC(NC2CC2c2ccccc2)CC1	OVCAR-5 complex spheroids, viability	fulfilled

Strictly below 20%: is that where viability, T/C of O=C(C=Cc1cccc(S(=O)(=O)Nc2ccccc2)c1)NO + NC1CC1c1ccc(-c2cccc(O)c2)cc1 sits?
fulfilled

Strictly below 20%: is that where viability, T/C of Nc1ccccc1NC(=O)c1ccc(CNC(=O)OCc2cccnc2)cc1 + NC1CCC(NC2CC2c2ccccc2)CC1 sits?
not fulfilled

Strictly below 20%: is that where viability, T/C of COc1cc(C2c3cc4c(cc3C(OC3OC5COC(C)OC5C(O)C3O)C3COC(=O)C23)OCO4)cc(OC)c1O (configuration not stated) + NC1CC1c1ccc(-c2cccc(O)c2)cc1 sits?
not fulfilled

* * *

The reader will find reported viability, T/C values listed item by item below.
- Test system: OVCAR-5 complex spheroids, viability
- assay_text: Anticancer human tumor OVCAR-5 cell line growth inhibition;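 further: spheroids exposed to agents for seven days; 100% = DMSO vehicle control wells viability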
- run_conditions: second compound 0.1 µM; first compound 0.003 µM; hits give low values
- Description: Multicellular complex tumor spheroid response to LSD1 Inhibitor Iadademstat in combination with a variety of drugs and investigational agents in selected tumor cell lines The current study was undertaken to assess response to LSD1 inhibitors in combination with standard-of-care drugs and investigational agents in solid tumor complex spheroid models as well as in the K-562 leukemia. […] Compounds. […] If the clinical Cmax for an agent had not been determined, the highest concentration tested was 10 microM. […]

Known viability, T/C results, listed for orientation:
>>> print(df.to_string())
                                   compound                         target_entity  value_measured
0  Nc1ncn(C2CC(O)C(CO)S2)c(=O)n1 (stereo unspecified) + NC1CC1c1ccc(-c2cccc(O)c2)cc1  OVCAR-5 complex spheroids, viability            110%
1  Nc1ccn(C2OC(CO)C(O)C2(F)F)c(=O)n1 (stereo unspecified) + NC1CCC(NC2CC2c2ccccc2)CC1  OVCAR-5 complex spheroids, viability             29%
2  Nc1ncn(C2CC(O)C(CO)S2)c(=O)n1 (stereo unspecified) + NC1CCC(NC2CC2c2ccccc2)CC1  OVCAR-5 complex spheroids, viability            104%

// viability, T/C lookup, compound = Nc1ccn(C2OC(CO)C(O)C2(F)F)c(=O)n1 (stereo unspecified) + NC1CC1c1ccc(-c2cccc(O)c2)cc1 , result: 27.5%

// viability, T/C lookup, compound = CCc1c2c(nc3ccc(O)cc13)-c1cc3c(c(=O)n1C2)COC(=O)[C@]3(O)CC + NC1CCC(NC2CC2c2ccccc2)CC1 , result: 20.8%

// viability, T/C lookup, compound = CCc1c2c(nc3ccc(O)cc13)-c1cc3c(c(=O)n1C2)COC(=O)[C@]3(O)CC + NC1CC1c1ccc(-c2cccc(O)c2)cc1 , result: 17.4%

* * *

- System: OVCAR-5 complex spheroids, viability
- assay_text: Anticancer human tumor OVCAR-5 cell line growth inhibition;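 further: spheroids exposed to agents for seven days; 100% = DMSO vehicle control wells viability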
- run_conditions: second compound 3.16 µM; first compound 0.949 µM; hits give low values
outcome_measure: viability, T/C (%)
Please give a number only; it is taken to be in %.

Known viability, T/C results, listed for orientation:
compound	viability, T/C, %
COc1cc(C2c3cc4c(cc3C(OC3OC5COC(C)OC5C(O)C3O)C3COC(=O)C23)OCO4)cc(OC)c1O (centres undefined) + NC1CC1c1ccc(-c2cccc(O)c2)cc1	38.4
NS(=O)(=O)OCC1CC(n2ccc3c(NC4CCc5ccccc54)ncnc32)CC1O (centres undefined) + NC1CC1c1ccc(-c2cccc(O)c2)cc1	7.78
O=C(C=Cc1cccc(S(=O)(=O)Nc2ccccc2)c1)NO + NC1CCC(NC2CC2c2ccccc2)CC1	15.6

Consider now this further compound.
Nc1ccccc1NC(=O)c1ccc(CNC(=O)OCc2cccnc2)cc1 + NC1CCC(NC2CC2c2ccccc2)CC1 on OVCAR-5 complex spheroids, viability gives viability, T/C = 26.5
